Biological target: Sterol 14-alpha demethylase (Trypanosoma cruzi (strain CL Brener), UniProt Q7Z1V1)
Sequence (Q7Z1V1 whole entry): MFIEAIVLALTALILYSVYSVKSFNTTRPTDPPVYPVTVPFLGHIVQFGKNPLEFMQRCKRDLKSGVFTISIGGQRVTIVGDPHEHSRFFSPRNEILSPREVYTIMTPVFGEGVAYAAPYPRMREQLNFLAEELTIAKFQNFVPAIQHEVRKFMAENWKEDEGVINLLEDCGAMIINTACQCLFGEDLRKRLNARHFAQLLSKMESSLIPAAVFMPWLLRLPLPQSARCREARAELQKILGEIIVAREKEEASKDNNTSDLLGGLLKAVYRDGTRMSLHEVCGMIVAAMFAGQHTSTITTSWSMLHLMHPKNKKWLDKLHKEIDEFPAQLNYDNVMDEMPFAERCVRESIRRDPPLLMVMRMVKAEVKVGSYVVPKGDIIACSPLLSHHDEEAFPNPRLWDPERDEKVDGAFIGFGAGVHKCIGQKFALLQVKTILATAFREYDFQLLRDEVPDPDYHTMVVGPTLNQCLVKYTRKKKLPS
Assay: GSK_TCAKS: pIC50 CYP51 from Trypanosoma cruzi.
Below, each entry is listed alongside its reported pIC50.
As a rule, pIC50 stands for the negative log10 of the concentration, concentration in M.

Query: Data request, read-out pIC50, for Cc1ccc2c(c1)-c1onc(C(=O)N3CCCCC3c3cccnc3)c1CO2 (stereo not given)
Response: 7.00

Query: Data request, read-out pIC50, for "COc1cc(F)c2ncc(F)c(CCN3CC[C@H](NCc4cc5c(cn4)OCS5)[C@@H](O)C3)c2c1"
Response: 4.50

Query: Data request, read-out pIC50, for "Clc1ccc(Sc2cnccc2N2CCOCC2)cc1"
Response: 7.50

Query: Data request, read-out pIC50, for CC(Cn1ccnc1)NC(=O)C1CC1c1cccc(Cl)c1Cl (stereo not given)
Response: 6.90

Query: Data request, read-out pIC50, for "COc1ccc2ncc(Cl)c(CCN3CC[C@@H](NCc4cc5c(cn4)OCS5)[C@H](O)C3)c2n1"
Response: 6.00

Query: Data request, read-out pIC50, for "Cc1cc(Br)cc(C(=O)c2c(C(C)C)c(=O)[nH]c(=O)n2Cc2ccnc(N)c2)c1"
Response: 7.80

Query: Data request, read-out pIC50, for Cc1nn(-c2nc3ccccc3[nH]2)c2c1C(c1ccc(O)cc1)CC(=O)N2 (stereo not given)
Response: 4.60

====

Molecular target: Sterol 14-alpha demethylase (Trypanosoma cruzi (strain CL Brener))
Assay: GSK_TCAKS: pIC50 CYP51 from Trypanosoma cruzi.
Property Name: IC50 (µM)
Quick reminder: number only, in µM, skip the unit.

Cc1ccnc(NS(=O)(=O)c2ccc(NC(=O)c3ccc([N+](=O)[O-])s3)cc2)n1 : 63.1
COc1ccc(CN2C(=O)C(O)(CC(=O)c3ccncc3)c3cc(Br)ccc32)cc1OC (stereo unspecified) : 0.501
O=[N+]([O-])c1ccc(-c2nnn(-c3cccnc3)n2)o1 : 3.98
Cc1ccc(NC(C)C(=O)Nc2ccc(C#N)cc2)cc1S(=O)(=O)N1CCCCC1 (stereo unspecified) : 15.8
CN(Cc1ccc(C(N)=O)cc1)C(c1ccc(F)cc1)c1cccnc1 (stereo unspecified) : 0.1

Query: Data request, read-out IC50, for "COc1ccc(NC(=O)c2ccc(NC(=O)CN(c3ccccc3C)S(C)(=O)=O)cc2)cc1"
Response: 6.31

Query: Data request, read-out IC50, for "CCN(CC)S(=O)(=O)c1ccc(OC)c(NC(=O)c2ccc([N+](=O)[O-])s2)c1"
Response: 31.6

Query: Data request, read-out IC50, for "CC(=O)Nc1ccc(Nc2nccc(-c3cnn4ncccc34)n2)cc1C(F)(F)F"
Response: 31.6

Query: Data request, read-out IC50, for CCC(c1ccc(F)cc1)n1cncc1-c1cnn(C)c1 (stereo unspecified)
Response: 0.0794

====

Target: Sterol 14-alpha demethylase (Trypanosoma cruzi (strain CL Brener), UniProt Q7Z1V1)
Assay: GSK_TCAKS: pIC50 CYP51 from Trypanosoma cruzi.
Below, each entry is listed alongside its reported IC50.
Quick reminder: number only, in µM, skip the unit.

Example compounds with recorded IC50:
COc1cccc(C(=O)[C@H]2C[C@@H]2CN(Cc2cccnc2)Cc2cccnc2)c1 : 0.0631
CCN(Cc1nc2ccc(C(=O)N3CCN(c4ncccn4)CC3)cc2[nH]1)C1CCCc2cccnc21 (stereo not given) : 7.94
COC(=O)c1ccc(-c2cnc3ccc(NCc4ccccn4)nn23)cc1 : 1.26

Query: Data request, read-out IC50, for "Cc1ccccc1NS(=O)(=O)c1ccc2[nH]cc(C(=O)NC3CCCCC3)c(=O)c2c1"
Response: 10

====

Biological target: Sterol 14-alpha demethylase (Trypanosoma cruzi (strain CL Brener))
Assay: GSK_TCAKS: pIC50 CYP51 from Trypanosoma cruzi.
Below, each entry is listed alongside its reported pIC50.
As a rule, pIC50 stands for the negative log10 of the concentration, concentration in M.

CN1C(=O)c2ccccc2Sc2ccc(NC(=O)NCc3ccco3)cc21 : 4.50
CCOc1ccc(CN(C)Cc2nc(Nc3ccc(C)cc3)[nH]c(=N)n2)cc1 : 4.80
O=C(NCCc1cccnc1)c1csc(-c2ccccc2)n1 : 7.20
COc1ccc(CN2CCCCC2c2nc(-c3cccnc3)no2)cc1 (stereo not drawn) : 6.70

Query: # get_value(readout= pIC50, system= Sterol 14-alpha demethylase (Trypanosoma cruzi (strain CL Brener))) for O=C(Nc1cccc(Cl)c1)N1CCCCC1c1cccnc1 (stereo not drawn)
Response: 7.70

Query: # get_value(readout= pIC50, system= Sterol 14-alpha demethylase (Trypanosoma cruzi (strain CL Brener))) for "COc1ccccc1-n1c(SCC(=O)Nc2ccc3c(c2)OCO3)nc2c(c1=O)SCC2"
Response: 4.20

Query: # get_value(readout= pIC50, system= Sterol 14-alpha demethylase (Trypanosoma cruzi (strain CL Brener))) for O=C(Nc1nc(-c2ccccn2)cs1)C1CCc2ccccc2C1 (stereo not drawn)
Response: 4.60

Query: # get_value(readout= pIC50, system= Sterol 14-alpha demethylase (Trypanosoma cruzi (strain CL Brener))) for COc1ccc(C2CC(c3ccccc3Cl)=NN2C(=O)CNC(=O)C2CCC2)cc1 (stereo not drawn)
Response: 4.30

Query: # get_value(readout= pIC50, system= Sterol 14-alpha demethylase (Trypanosoma cruzi (strain CL Brener))) for Cc1ccc(S(=O)(=O)Cn2nnnc2C(c2cccnc2)N2CCN(c3ccccc3)CC2)cc1 (stereo not drawn)
Response: 6.70

Query: # get_value(readout= pIC50, system= Sterol 14-alpha demethylase (Trypanosoma cruzi (strain CL Brener))) for "CCCC(=O)N(Cc1ccccn1)c1nc2ccccc2s1"
Response: 7.30

Query: # get_value(readout= pIC50, system= Sterol 14-alpha demethylase (Trypanosoma cruzi (strain CL Brener))) for CC(C(=O)Nc1ccccc1F)N(C)CC(=O)Nc1cccc2ccccc12 (stereo not drawn)
Response: 4.80

Query: # get_value(readout= pIC50, system= Sterol 14-alpha demethylase (Trypanosoma cruzi (strain CL Brener))) for "CCc1cccc(CC)c1-n1c(SCC(=O)NC(=O)NCc2ccco2)nnc1-c1cccnc1"
Response: 6.00

Query: # get_value(readout= pIC50, system= Sterol 14-alpha demethylase (Trypanosoma cruzi (strain CL Brener))) for "NC(=O)c1cc(NC(=O)c2ccccc2COc2ccccc2)ccc1Cl"
Response: 4.10

Query: # get_value(readout= pIC50, system= Sterol 14-alpha demethylase (Trypanosoma cruzi (strain CL Brener))) for O=c1cc(NCCCNC2CCOc3c(I)cc(Cl)cc32)[nH]c2ccccc12 (stereo not drawn)
Response: 4.80

Query: # get_value(readout= pIC50, system= Sterol 14-alpha demethylase (Trypanosoma cruzi (strain CL Brener))) for "COc1ccc2nc(N(Cc3cccnc3)C(=O)C3CCC3)sc2c1"
Response: 7.20

Query: # get_value(readout= pIC50, system= Sterol 14-alpha demethylase (Trypanosoma cruzi (strain CL Brener))) for CC(C)(C)C(Cn1ccnc1)NC(=O)c1ccc2nc(C3CC3)oc2c1 (stereo not drawn)
Response: 7.00

Query: # get_value(readout= pIC50, system= Sterol 14-alpha demethylase (Trypanosoma cruzi (strain CL Brener))) for "Nc1cc(-c2ccc3ncnc(N4CCOCC4)c3c2)cnc1N"
Response: 4.10

Query: # get_value(readout= pIC50, system= Sterol 14-alpha demethylase (Trypanosoma cruzi (strain CL Brener))) for "CC(C)(C)Nc1nc(Nc2ccc3c(c2)CS(=O)(=O)C3)nc2[nH]ccc12"
Response: 4.60

Query: # get_value(readout= pIC50, system= Sterol 14-alpha demethylase (Trypanosoma cruzi (strain CL Brener))) for CN(Cc1nc2ccc(C(=O)NCC3CCCCC3)cc2[nH]1)C1CCCc2cccnc21 (stereo not drawn)
Response: 4.40

Query: # get_value(readout= pIC50, system= Sterol 14-alpha demethylase (Trypanosoma cruzi (strain CL Brener))) for CC(c1cc(Cl)cc(Cl)c1)N(C)c1ncc2c(N)nc(N)nc2n1 (stereo not drawn)
Response: 4.40

Query: # get_value(readout= pIC50, system= Sterol 14-alpha demethylase (Trypanosoma cruzi (strain CL Brener))) for CNC(=O)C1Cc2ccccc2N1C(=O)COc1cccc(OC)c1 (stereo not drawn)
Response: 4.00

Query: # get_value(readout= pIC50, system= Sterol 14-alpha demethylase (Trypanosoma cruzi (strain CL Brener))) for COc1ccccc1C1CC(c2ccc(NS(C)(=O)=O)cc2)=NN1C(=O)c1cccs1 (stereo not drawn)
Response: 4.60

Query: # get_value(readout= pIC50, system= Sterol 14-alpha demethylase (Trypanosoma cruzi (strain CL Brener))) for "O=C(N1CCc2ccccc2CC1)C1(C(=O)N2CCC(n3c(=O)[nH]c4ncccc43)CC2)CC1"
Response: 6.50

Query: # get_value(readout= pIC50, system= Sterol 14-alpha demethylase (Trypanosoma cruzi (strain CL Brener))) for "Cc1ccc(NC(=O)c2ccc([N+](=O)[O-])s2)cc1S(=O)(=O)N1CCOCC1"
Response: 4.70

====

Target: Sterol 14-alpha demethylase (Trypanosoma cruzi (strain CL Brener), UniProt Q7Z1V1)
Experiment: GSK_TCAKS: pIC50 CYP51 from Trypanosoma cruzi.
Below, each entry is listed alongside its reported pIC50.
As a rule, pIC50 stands for the negative log10 of the concentration, concentration in M.

COc1ccccc1CNc1cc(C2CC2)nc(-c2nccn2C)n1 : 4.70
O=C(NCC(c1cccnc1)N1CCc2ccccc2C1)C(=O)Nc1cccc(Cl)c1 (configuration not stated) : 7.20
COc1cccc(CCNC(=O)C(c2cn[nH]c2)N2CCN(c3ccc(Cl)cc3)CC2)c1 (configuration not stated) : 7.20
O=C1CN(C2CCCc3c(OCc4ccncc4)cccc32)C(=O)N1C1CCCCC1 (configuration not stated) : 7.70
O=C(Nc1ccc(C(=O)N2CCCC2c2ccc3c(c2)OCCCO3)cc1)c1ccco1 (configuration not stated) : 4.20

Query: Data request, read-out pIC50, for "NC(=O)c1ccc(-c2cccc(OCCN3CCN(C4CCCCC4)CC3)c2)cc1"
Response: 4.40

Query: Data request, read-out pIC50, for "CCCCn1nnnc1CSc1nc(C)cc(C)c1C#N"
Response: 4.30

Query: Data request, read-out pIC50, for "Fc1ccc(O[C@H]2C[C@H](NCc3cccc4cn[nH]c34)C2)cc1C(F)(F)F"
Response: 6.90

Query: Data request, read-out pIC50, for "CN(C)S(=O)(=O)c1cccc(C(=O)Nc2nc(-c3ccccn3)cs2)c1"
Response: 4.50

Query: Data request, read-out pIC50, for "N#Cc1cc(-c2ccnc(Nc3cccc(CN4CCOCC4)c3)n2)ccc1NCCN"
Response: 4.50
